Target: OX2R (Homo sapiens, UniProt O43614)
Construct: expressed in transfected cells; host or cells: CHO (Chinese hamster ovary) cells constitutively expressing the OX2R gene and NFAT-luciferase (CHOOX2R)
Sequence (O43614 whole entry): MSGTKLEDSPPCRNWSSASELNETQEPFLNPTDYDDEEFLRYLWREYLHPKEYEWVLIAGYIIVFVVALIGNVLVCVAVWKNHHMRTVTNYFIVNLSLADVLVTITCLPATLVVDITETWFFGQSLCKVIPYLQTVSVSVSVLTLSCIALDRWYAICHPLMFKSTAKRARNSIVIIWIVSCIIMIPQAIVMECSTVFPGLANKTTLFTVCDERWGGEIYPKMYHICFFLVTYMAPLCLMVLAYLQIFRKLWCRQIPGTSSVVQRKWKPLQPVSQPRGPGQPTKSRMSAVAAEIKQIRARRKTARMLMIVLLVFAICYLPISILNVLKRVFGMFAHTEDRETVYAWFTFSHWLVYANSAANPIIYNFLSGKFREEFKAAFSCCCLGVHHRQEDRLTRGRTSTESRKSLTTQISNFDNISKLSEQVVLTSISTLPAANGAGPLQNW
Assay: Evaluation of agonist activity against OX2R (CHOOX2R cells, Fura2AM fluorescence, FDSS3000)
Assay type: cell-based
Settings: test compound 0.1 μM; CHOOX2R cells; relative to orexin-A as full agonist (100%)
Please use the following Response (0.1 μM (%)) ranges when assigning a class: lo: < 30%; med: ≥ 30% and < 70%; hi: ≥ 70%

{"CHEMICAL STRING": "COc1ccc(-c2cccc(C(=O)N(C)C)c2)cc1S(=O)(=O)Nc1cccc(NCCNC(=O)c2cccc(C#N)c2)c1", "DISCRETE LABEL": "lo"}
{"CHEMICAL STRING": "COc1ccc(-c2cccc(C(=O)N(C)C)c2)cc1S(=O)(=O)Nc1cccc(NCCNC(=O)c2c(F)cccc2OC)c1", "DISCRETE LABEL": "med"}
{"CHEMICAL STRING": "COc1ccccc1C(=O)NCCNc1cccc(NS(=O)(=O)c2cc(-c3cccc(C(=O)N4CCC4)c3)ccc2OC)c1", "DISCRETE LABEL": "hi"}
{"CHEMICAL STRING": "COc1ccc(-c2cccc(C(=O)N(C)C)c2)cc1S(=O)(=O)Nc1cccc(NCCNC(=O)c2ccc(Cl)s2)c1", "DISCRETE LABEL": "lo"}
{"CHEMICAL STRING": "COc1cc(OC)cc(-c2ccc(OC)c(S(=O)(=O)Nc3cccc(NCCNC(=O)c4ccccc4OC)c3)c2)c1", "DISCRETE LABEL": "lo"}
{"CHEMICAL STRING": "COc1ccccc1C(=O)NCCNc1cccc(NS(=O)(=O)c2cc(-c3cccc(C(=O)N(C)C(C)(C)C)c3)ccc2OC)c1", "DISCRETE LABEL": "lo"}
{"CHEMICAL STRING": "COc1ccc(-c2cccc(C(=O)N(C)C)c2)cc1S(=O)(=O)Nc1cccc(NCCNC(=O)c2ccccc2C)c1", "DISCRETE LABEL": "hi"}
{"CHEMICAL STRING": "COc1ccccc1C(=O)NCCNc1cccc(NS(=O)(=O)c2cc(-c3cccc(C(=O)NCC(F)(F)F)c3)ccc2OC)c1", "DISCRETE LABEL": "lo"}
{"CHEMICAL STRING": "COc1ccc(-c2cccc(C(=O)N(C)C)c2)cc1S(=O)(=O)Nc1cccc(NCCNC(=O)c2ccccc2C(F)(F)F)c1", "DISCRETE LABEL": "med"}
{"CHEMICAL STRING": "COc1ccc(F)c(-c2ccc(OC)c(S(=O)(=O)Nc3cccc(NCCNC(=O)c4ccccc4OC)c3)c2)c1", "DISCRETE LABEL": "lo"}
{"CHEMICAL STRING": "COc1ccccc1C(=O)NCCNc1cccc(NS(=O)(=O)c2cc(-c3cccc(CO)c3)ccc2OC)c1", "DISCRETE LABEL": "lo"}
{"CHEMICAL STRING": "COc1ccc(-c2cccc(C(=O)N3CCCC3)c2)cc1S(=O)(=O)Nc1cccc(NCCNC(=O)c2sccc2Cl)c1", "DISCRETE LABEL": "hi"}
{"CHEMICAL STRING": "CNC(=O)c1cccc(-c2ccc(OC)c(S(=O)(=O)Nc3cccc(NCCNC(=O)c4ccccc4OC)c3)c2)c1", "DISCRETE LABEL": "med"}
